# target.desc: Methionyl-tRNA synthetase, putative (Leishmania donovani (strain BPK282A1)) (UniProt E9BF75)
# Sequence (whole entry): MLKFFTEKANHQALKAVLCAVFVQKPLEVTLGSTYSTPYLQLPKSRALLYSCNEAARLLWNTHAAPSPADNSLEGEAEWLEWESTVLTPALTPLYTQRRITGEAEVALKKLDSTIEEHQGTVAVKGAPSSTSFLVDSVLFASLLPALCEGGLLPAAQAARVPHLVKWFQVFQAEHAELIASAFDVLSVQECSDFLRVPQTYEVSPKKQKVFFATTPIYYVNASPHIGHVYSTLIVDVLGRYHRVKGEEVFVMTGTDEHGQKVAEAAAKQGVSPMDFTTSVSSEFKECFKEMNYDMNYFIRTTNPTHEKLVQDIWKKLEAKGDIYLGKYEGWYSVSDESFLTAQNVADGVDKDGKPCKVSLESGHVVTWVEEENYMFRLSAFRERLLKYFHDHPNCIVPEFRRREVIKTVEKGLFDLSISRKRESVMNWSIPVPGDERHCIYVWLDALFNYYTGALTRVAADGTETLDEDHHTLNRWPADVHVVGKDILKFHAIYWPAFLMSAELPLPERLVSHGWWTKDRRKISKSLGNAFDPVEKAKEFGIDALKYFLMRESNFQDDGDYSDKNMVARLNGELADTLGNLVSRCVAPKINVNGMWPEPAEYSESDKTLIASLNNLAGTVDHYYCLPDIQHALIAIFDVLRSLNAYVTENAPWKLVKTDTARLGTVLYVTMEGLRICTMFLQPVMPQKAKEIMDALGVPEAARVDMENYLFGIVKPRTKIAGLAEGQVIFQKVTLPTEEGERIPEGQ
# test.summary: Leishmania donovani Methionine tRNA synthetase (LdMetRS):v6. Primary screen assay
# Assay type: functional
# Set-up: conc 80 nM, time 150 minutes
Screen size: about 68,000 compounds; about 25 (0.04%) showed an effect of 50% or more. The full list was thinned out, with strong results kept by preference.
I'd appreciate it if you could supply inhibition values for the items below.
Numbers only, in %.

> print(dat)
                                   compound     readout  measurement.unit  observed.measurement
1  CCCSCC(=O)N1C[C@@H]2CC[C@H](C1)N(Cc1ccccn1)C2=O  inhibition                 %                 -1.42
2           CNc1cc(-c2ccccc2CN)c2cc[nH]c2n1  inhibition                 %                  23.4
3  Cc1occc1C(=O)N1CCO[C@H]2[C@H](Oc3cccnc3)CC[C@@H]21  inhibition                 %                  3.85
4  O=C(c1ccsc1)N1C[C@H](N2CCOCC2)[C@@H]2OCCC[C@@H]21  inhibition                 %                  13.9

Could you tell me inhibition for each of these compounds? They are listed below.
1. CCCOc1cc(C)c2c(c1C)C[C@H]([C@H](C)C(=O)O)CC2
2. COCC(=O)N1C[C@H]2CC[C@@]3(N=C(c4ccccc4)NC3=O)[C@H]2C1
3. C1CC(CN2C[C@H]3CC[C@@H]2CN(Cc2nnc(C4CC4)o2)C3)C1
4. CNC(=O)CC1COCCN1C(=O)C1(c2ccc(Cl)cc2)CCC1 (configuration not stated)
5. O=C(NC1CC1)[C@H]1CC[C@@H]2[C@@H](CCN2Cc2ccsc2)O1

[A]
[2.26, 8.15, 9.96, 7.45, 6.67]

Could you tell me inhibition for each of these compounds? They are listed below.
1. Cc1ccc(N2CCO[C@H]3CN(C(=O)c4cccc(C)n4)C[C@H]32)nn1
2. O=C(O)CC1COCCN1C(=O)C1(c2ccc(Cl)cc2)CCC1 (configuration not stated)
3. CNc1cc(-c2cccc(CN)c2)c2cc[nH]c2n1
4. O=C(N1CCC(O)(C(F)(F)F)C1)C1(c2ccc(Cl)cc2)CC1 (configuration not stated)
5. CN(C)C(=O)NCc1cc2n(n1)CCN(C[C@H]1[C@@H]3CNC[C@@H]31)C2
6. O=C(NCC1CCOCC1)[C@@H]1CC[C@@H]2[C@@H](CCN2Cc2ccncc2)O1

[A]
1: 5.75; 2: 52.2; 3: 53; 4: 8.1; 5: 12; 6: 19.3

====

# target.desc: Methionyl-tRNA synthetase, putative (Leishmania donovani (strain BPK282A1)) (UniProt E9BF75)
# test.summary: Leishmania donovani Methionine tRNA synthetase (LdMetRS):v6. Primary screen assay
# Assay type: functional
# Design: conc 80 nM, time 150 minutes
Hit rate of the full screen: of about 68,000 compounds, about 25 (0.04%) showed an effect of 50% or more. The full list was thinned out, with strong results kept by preference.
I'd appreciate it if you could supply inhibition values for the items below.
Numbers only, in %.

Reference set, count: 5
> print(dat)
                            molecule.smiles     readout  observed.measurement
1  Cc1nc(CN2C[C@@H]3CCCO[C@@H]3[C@H](NC(=O)CC3CC3)C2)cs1  inhibition                  12.6
2    Cc1nc(CN(C)C(=O)c2ccc(Cn3cnnn3)cc2)cs1  inhibition                   123
3  O=C(NCc1ccco1)[C@@]12CCO[C@@H]1CCN(Cc1ccccn1)C2  inhibition                  16.3
4  O=C(NCC1CC1)[C@H]1CC[C@@H]2[C@@H](CCN2Cc2ccoc2)O1  inhibition                  10.8
5  N#Cc1cccc(C(=O)N2CC[C@H]3[C@H]2CCN3CC2CCOCC2)c1  inhibition                  9.34

Could you tell me inhibition for each of these molecules? They are listed below.
1. Cc1ncsc1CCN(C)C(=O)c1ccc(Cn2cnnn2)cc1
2. COc1cc(N2CC[C@@H]3O[C@@H](C(=O)NCCN(C)C)C[C@@H]32)ncn1
3. C=C1C(C)(C)[C@H]2CC[C@]1(C(=O)N1CCC(Cn3cc(CO)nn3)CC1)C2
4. c1ccc(CN2C[C@H]3CC[C@@H]2CN(Cc2nnc(C4CC4)o2)C3)cc1
5. CNc1cc(-c2ccc(COCCN)cc2)c2cc[nH]c2n1

[A]
16.8
4.66
11.7
12.8
33.4

====

# target.desc: Methionyl-tRNA synthetase, putative (Leishmania donovani (strain BPK282A1))
# Sequence (whole entry): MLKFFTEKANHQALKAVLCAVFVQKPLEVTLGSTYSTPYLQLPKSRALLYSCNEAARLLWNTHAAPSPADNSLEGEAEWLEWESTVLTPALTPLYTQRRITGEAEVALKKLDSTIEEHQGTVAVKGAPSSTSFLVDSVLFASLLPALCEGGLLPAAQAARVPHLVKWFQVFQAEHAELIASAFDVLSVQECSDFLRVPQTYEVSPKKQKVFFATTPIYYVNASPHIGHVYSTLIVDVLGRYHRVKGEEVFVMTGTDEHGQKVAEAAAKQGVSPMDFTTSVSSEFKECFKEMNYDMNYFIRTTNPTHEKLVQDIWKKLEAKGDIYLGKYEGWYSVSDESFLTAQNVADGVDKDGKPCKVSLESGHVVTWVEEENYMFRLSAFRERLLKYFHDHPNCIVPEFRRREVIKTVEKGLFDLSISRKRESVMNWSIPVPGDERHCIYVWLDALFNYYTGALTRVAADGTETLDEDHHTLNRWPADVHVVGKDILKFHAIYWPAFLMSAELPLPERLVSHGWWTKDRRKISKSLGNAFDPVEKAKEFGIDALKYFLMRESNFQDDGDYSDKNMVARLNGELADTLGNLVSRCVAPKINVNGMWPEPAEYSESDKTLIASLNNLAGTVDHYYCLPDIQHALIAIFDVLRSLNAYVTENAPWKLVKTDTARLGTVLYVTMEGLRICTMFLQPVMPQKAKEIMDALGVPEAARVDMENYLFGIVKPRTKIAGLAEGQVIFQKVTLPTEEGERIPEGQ
# test.summary: Leishmania donovani Methionine tRNA synthetase (LdMetRS):v6. Primary screen assay
# Format: functional
# Parameters: conc 80 nM, time 150 minutes
The whole screen tested about 68,000 compounds, of which about 25 (0.04%) showed an effect of 50% or more. Shown is part of a subset that was picked to be rich in strong results.
readout: inhibition (%)
Numbers only, in %.

> print(dat)
                            molecule.smiles  observed.measurement
1  CO[C@@H]1CC[C@H]2[C@H]1OCCN2S(=O)(=O)c1cn(C)cn1                   7.3
2  Cn1cc(CN2CC[C@H]3O[C@@H](C(=O)NC4CC4)CC[C@H]32)cn1                  3.76
3  N#Cc1ccccc1CN1C[C@H]2CC[C@@H]1CN(C(=O)c1cccnc1)C2                  15.4

Could you tell me inhibition for each of these molecules? They are listed below.
1. c1csc(CN2C[C@@H](n3cccn3)[C@H]3OCCC[C@H]32)c1
2. Cc1ccc(C(=O)N2C[C@@H](N3CCN(C)CC3)[C@H]3OCCC[C@H]32)cn1

[A]
1. 10.1
2. 14.1
